Measured protein stability index, listed per entry.
B1: SCARA5 (parent)
chain: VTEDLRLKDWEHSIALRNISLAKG

Variants of: B1
Experiment: protein stability index of a GFP-peptide fusion (GPS, HEK-293T) (PSI 1-6); higher = more stable;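 also: lentivirally expressed fusions sorted by FACS into six bins by GFP to DsRed ratio, PSI derived from sequencing read proportions per bin multiplied by bin number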
Details: c terminus: a fixed tail appended
Write the number on its own, no unit after it.

A selection of reference data follows.
{"mutation_id": "L5A", "protein stability index": 3.92}
{"mutation_id": "E3S", "protein stability index": 3.16}
{"mutation_id": "K8A", "protein stability index": 3.43}
{"mutation_id": "T2D", "protein stability index": 3.8}

Please look at the following variant next.
Prompt: May I ask what protein stability index has been recorded for D4G ?
Completion: 3.04
